Readings of binding signal for the listed sequences
Target: HNF4alpha2 (COS-7 nuclear extract) (Homo sapiens, UniProt P41235 1-474)
Sequence: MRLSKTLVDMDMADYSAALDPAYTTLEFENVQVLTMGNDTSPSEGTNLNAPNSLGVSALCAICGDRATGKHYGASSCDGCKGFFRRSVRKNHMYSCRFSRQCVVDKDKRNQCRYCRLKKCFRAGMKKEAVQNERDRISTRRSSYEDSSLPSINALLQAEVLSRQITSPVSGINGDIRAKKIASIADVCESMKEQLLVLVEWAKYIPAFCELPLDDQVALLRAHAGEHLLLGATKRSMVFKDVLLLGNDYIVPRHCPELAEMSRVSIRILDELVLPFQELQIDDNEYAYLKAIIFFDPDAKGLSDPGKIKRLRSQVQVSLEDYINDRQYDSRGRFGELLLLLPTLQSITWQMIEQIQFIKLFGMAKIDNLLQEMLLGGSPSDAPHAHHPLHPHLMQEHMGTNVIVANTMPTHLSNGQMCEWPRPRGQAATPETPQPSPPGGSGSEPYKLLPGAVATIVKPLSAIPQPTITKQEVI
Assay: protein-binding microarray; COS-7 nuclear extract on double-stranded Agilent 4x180k PBM; binding buffer, salt, pH and temperature not given in the material; high values mean tight binding
Settings: chain copies: 2; label: 3' end of strand 1 on the slide; dsDNA, one strand shown
In all, about 18,000 sequences were measured (“log2 normalized intensity”: median about 0.39, highest 2% from about 6.6 on). This is one part of a sample in which the highest values are shown more often than they occur.
Answer format: numeric, log2 normalized intensity implied, no suffix.

Record excerpt, results attached:
- CHAIN: "ATGCATAGAAGTATGTCTGGGATTTGAAGGGCCTAGGGAGATTAGAGTATCGGTCGA"
  ATTRIBUTE_MEASURED: "binding signal"
  MEASURE_UNIT: "log2 normalized intensity"
  RECORDED_RESULT: -0.542
- CHAIN: "AACATGTAATCATTTGGGACAAAGTTCATCGCCTAGGGAGATTAGAGTATCGGTCGA"
  ATTRIBUTE_MEASURED: "binding signal"
  MEASURE_UNIT: "log2 normalized intensity"
  RECORDED_RESULT: 4.11
- CHAIN: "AAAAAACCCTAGAGATGTACACAGTTCAAAGCCTAGGGAGATTAGAGTATCGGTCGA"
  ATTRIBUTE_MEASURED: "binding signal"
  MEASURE_UNIT: "log2 normalized intensity"
  RECORDED_RESULT: -0.874
- CHAIN: "GGGGGTAAAGTGGATTGCTGGCCTTTTATCGCCTAGGGAGATTAGAGTATCGGTCGA"
  ATTRIBUTE_MEASURED: "binding signal"
  MEASURE_UNIT: "log2 normalized intensity"
  RECORDED_RESULT: 0.814

Task: Looking for the measured binding signal of TGAGTAGTGTACGTTGTACCCCACAGGTATGCCTAGGGAGATTAGAGTATCGGTCGA , can you help?
Output: 2.94

Task: Looking for the measured binding signal of TGGACTTTGGTCCTGGTCAGACTTGCCACGGCCTAGGGAGATTAGAGTATCGGTCGA , can you help?
Output: 4.5

Task: Looking for the measured binding signal of CATGCAATCACACTAATCTGTCAGAAAACCGCCTAGGGAGATTAGAGTATCGGTCGA , can you help?
Output: -0.731

Task: Looking for the measured binding signal of GCTGTGCCGAGCCTGCAGGTGAATGGAAACGCCTAGGGAGATTAGAGTATCGGTCGA , can you help?
Output: -0.549

----------
Molecular target: HNF4alpha2 (COS-7 nuclear extract) (Homo sapiens, UniProt P41235 1-474)
Sequence: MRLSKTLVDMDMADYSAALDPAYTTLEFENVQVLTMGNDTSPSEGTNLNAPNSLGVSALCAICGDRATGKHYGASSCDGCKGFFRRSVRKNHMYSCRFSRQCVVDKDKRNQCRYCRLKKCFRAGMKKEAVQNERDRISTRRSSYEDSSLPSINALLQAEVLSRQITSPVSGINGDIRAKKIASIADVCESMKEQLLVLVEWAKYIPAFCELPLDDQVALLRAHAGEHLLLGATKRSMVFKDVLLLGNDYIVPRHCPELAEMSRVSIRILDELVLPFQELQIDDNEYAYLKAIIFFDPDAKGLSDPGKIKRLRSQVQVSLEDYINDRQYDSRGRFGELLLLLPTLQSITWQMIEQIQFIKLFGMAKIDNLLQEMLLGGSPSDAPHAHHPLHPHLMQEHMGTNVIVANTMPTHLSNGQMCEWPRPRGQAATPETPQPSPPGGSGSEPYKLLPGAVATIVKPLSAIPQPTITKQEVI
Assay: protein-binding microarray; COS-7 nuclear extract on double-stranded Agilent 4x180k PBM; binding buffer, salt, pH and temperature not given in the material; high values mean tight binding
Conditions: chain copies: 2; label: 3' end of strand 1 on the slide; dsDNA, one strand shown
Whole data set: some 18,000 sequences, median “log2 normalized intensity” near 0.39, cut for the highest 2% near 6.6. The full list was thinned out, with the highest values kept by preference.
Could you label it met if measured binding signal is 6 log2 normalized intensity or higher, and not met otherwise?

Here's what some known entries look like.
- CHAIN: "ACACAGTACTTTGTACATGGGAATAGACATGCCTAGGGAGATTAGAGTATCGGTCGA"
  ASSIGNED_LABEL: "not met"
- CHAIN: "TTAGCCCAGTGAGACCCATTTTGGACTTTGGCCTAGGGAGATTAGAGTATCGGTCGA"
  ASSIGNED_LABEL: "met"
- CHAIN: "ATGCTGGTCTCCTTGCCCCACCCCCCACCCGCCTAGGGAGATTAGAGTATCGGTCGA"
  ASSIGNED_LABEL: "met"
- CHAIN: "GTCAGTTGATAAACAGATAACTGGGGGCAAGCCTAGGGAGATTAGAGTATCGGTCGA"
  ASSIGNED_LABEL: "not met"
- CHAIN: "CATGCTCCCCACCCCCAACTTCCCCAACCCGCCTAGGGAGATTAGAGTATCGGTCGA"
  ASSIGNED_LABEL: "met"

Task: # check: binding signal of AATGATGATGACTTTTGACCCCAGGGGAAAGCCTAGGGAGATTAGAGTATCGGTCGA is greater than or equal to 6 log2 normalized intensity
Output: not met

Task: # check: binding signal of AGGTACTAAGAGATTTGAATATGTACATGGGCCTAGGGAGATTAGAGTATCGGTCGA is greater than or equal to 6 log2 normalized intensity
Output: not met

----------
Target: HNF4alpha2 (COS-7 nuclear extract) (Homo sapiens, UniProt P41235 1-474)
Sequence: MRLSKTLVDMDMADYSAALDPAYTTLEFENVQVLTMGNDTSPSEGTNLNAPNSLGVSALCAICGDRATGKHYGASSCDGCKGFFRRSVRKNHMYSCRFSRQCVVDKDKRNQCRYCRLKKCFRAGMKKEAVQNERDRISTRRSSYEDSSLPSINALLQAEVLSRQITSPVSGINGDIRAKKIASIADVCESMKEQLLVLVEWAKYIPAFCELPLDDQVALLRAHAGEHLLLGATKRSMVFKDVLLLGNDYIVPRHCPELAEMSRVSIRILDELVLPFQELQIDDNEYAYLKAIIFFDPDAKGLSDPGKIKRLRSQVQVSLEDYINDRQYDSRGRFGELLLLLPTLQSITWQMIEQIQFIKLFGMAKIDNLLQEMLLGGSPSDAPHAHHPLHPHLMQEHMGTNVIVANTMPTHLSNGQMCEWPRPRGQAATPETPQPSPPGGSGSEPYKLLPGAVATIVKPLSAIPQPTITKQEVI
Assay: protein-binding microarray; COS-7 nuclear extract on double-stranded Agilent 4x180k PBM; binding buffer, salt, pH and temperature not given in the material; high values mean tight binding
Settings: chain copies: 2; label: 3' end of strand 1 on the slide; dsDNA, one strand shown
The full ranking holds about 18,000 sequences; the median of “log2 normalized intensity” is about 0.39, and the highest 2% start at about 6.6. Shown is part of a subset that was picked to be rich in the highest values.
Readings of binding signal for the listed sequences
Answer format: numeric, log2 normalized intensity implied, no suffix.

- CHAIN: "TGAGGCCCCAGTGTCAATTCTCATTCATCCGCCTAGGGAGATTAGAGTATCGGTCGA"
  MEASURE_UNIT: "log2 normalized intensity"
  binding signal: -0.225
- CHAIN: "GATCAAAGGTCGGTTTTAGGACAACATGAGGCCTAGGGAGATTAGAGTATCGGTCGA"
  MEASURE_UNIT: "log2 normalized intensity"
  binding signal: 4.52
- CHAIN: "TTCCACTGACTTGCAACCTTTGCCCTGTTGGCCTAGGGAGATTAGAGTATCGGTCGA"
  MEASURE_UNIT: "log2 normalized intensity"
  binding signal: 6.31
- CHAIN: "TTCCCTTGGAATGCCAGATGACCTTTGCCCGCCTAGGGAGATTAGAGTATCGGTCGA"
  MEASURE_UNIT: "log2 normalized intensity"
  binding signal: 9.88
- CHAIN: "TCACAATTAAGCCAAACTTGGGTTTATGGCGCCTAGGGAGATTAGAGTATCGGTCGA"
  MEASURE_UNIT: "log2 normalized intensity"
  binding signal: 0.583

Task: Looking for the measured binding signal of TGGGCACTGTCCTAGGTGCTGAAGATGCAAGCCTAGGGAGATTAGAGTATCGGTCGA , can you help?
Output: -0.724
